Hello, the source for this data is patent US12054487B2, in case you need it.

Molecular target: M3 (Homo sapiens, UniProt P20309)
Sequence (P20309 whole entry): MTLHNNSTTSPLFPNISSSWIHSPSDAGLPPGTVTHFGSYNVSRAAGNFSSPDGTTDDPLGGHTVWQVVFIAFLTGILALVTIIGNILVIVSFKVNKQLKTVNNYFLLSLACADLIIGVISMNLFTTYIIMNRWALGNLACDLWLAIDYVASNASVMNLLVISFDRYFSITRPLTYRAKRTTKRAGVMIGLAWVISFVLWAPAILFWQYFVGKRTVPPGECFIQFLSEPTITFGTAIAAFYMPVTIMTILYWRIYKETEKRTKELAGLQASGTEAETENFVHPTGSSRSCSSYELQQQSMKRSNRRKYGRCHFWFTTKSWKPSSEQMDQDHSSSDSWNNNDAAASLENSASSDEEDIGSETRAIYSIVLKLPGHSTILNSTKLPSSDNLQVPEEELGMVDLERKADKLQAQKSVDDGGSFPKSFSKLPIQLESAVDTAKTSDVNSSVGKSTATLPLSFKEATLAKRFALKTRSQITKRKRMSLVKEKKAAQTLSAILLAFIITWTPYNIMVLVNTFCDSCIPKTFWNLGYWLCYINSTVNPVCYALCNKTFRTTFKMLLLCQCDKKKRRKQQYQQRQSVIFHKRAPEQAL
Test: In vitro functional assay of muscarinic acetylcholine receptor activity, M3
Conditions: antagonist activity; M3 method not separately described
pIC50: −log10 of the molar value.
Listed below: pIC50 values for each entry.

For orientation, consider the following solved cases.
MOLECULE	pIC50
N#Cc1ccc(N2CCN3C(=O)[C@@H](CCCc4cccnn4)C[C@H]3C2)nc1 [Example 56]	6.00 to 7.00
O=C1C(CCCc2cccc3ncnn23)C[C@H]2CN(c3ccc(F)cn3)CCN12 (single isomer, unassigned) [Example 50]	< 5.00
N#Cc1ccc(N2CCN3C(=O)[C@@H](CCCc4cccc5ncsc45)C[C@H]3C2)nc1 [Example 10]	5.00 to 6.00
O=C1[C@@H](CCCc2cccc3ncnn23)C[C@H]2CN(c3ccc(C(F)(F)F)cn3)CCN12 [Example 32]	5.00 to 6.00
O=C1[C@@H](CCCc2cccc3nccn23)C[C@H]2CN(c3ccncc3F)CCN12 [Example 3]	5.00 to 6.00

Please look at the following molecule next.
Reported pIC50 of O=C1[C@@H](CCCc2cccc3ncnn23)C[C@H]2CN(c3ccc(C4CC4)cn3)CCN12 [Example 45] : 6.00 to 7.00
